Target Desc: T1, Extracellular domain (ECD) of the canine IL-4 receptor alpha-V5 epitope-AviTag-His Tag (canine)
T1 construct: monomeric form isolated by size exclusion; also called canine IL-4RA-V5-Avi-His; canine IL-4RA
T1 chain: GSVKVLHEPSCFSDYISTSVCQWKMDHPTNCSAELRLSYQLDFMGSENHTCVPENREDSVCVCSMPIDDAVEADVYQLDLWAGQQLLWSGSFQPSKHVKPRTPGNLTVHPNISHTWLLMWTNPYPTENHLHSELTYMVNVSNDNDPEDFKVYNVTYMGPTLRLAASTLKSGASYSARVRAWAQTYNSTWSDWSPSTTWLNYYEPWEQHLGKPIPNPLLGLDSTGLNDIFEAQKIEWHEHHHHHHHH
Experiment Description: SPR, Fab-SASA captured on BSA;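 further: biacore T200 SPR, Fab-SASA variants from E. coli conditioned medium captured on BSA-coated CM5 chip, canine IL-4RA injected 120 s then 420 s dissociation, 1:1 model fit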
Recorded Endpoint: pKd
# pKd: negative log10 of molar concentration; output just the value

Some binders with known pKd results, for comparison:
TB640_005 Fab-SASA VL-L55M (Fab, V domains shown, not shown: SASA tag then His-tag) VH: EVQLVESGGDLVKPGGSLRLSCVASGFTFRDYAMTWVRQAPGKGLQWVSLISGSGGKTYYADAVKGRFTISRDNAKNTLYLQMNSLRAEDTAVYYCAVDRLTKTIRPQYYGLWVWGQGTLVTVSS VL: DIVMTQTPLSLSVSPGETASISCRSSQSLLYSIGYNYLDWYLQKPGQSPQGLIYMGSKRASGVPDRFSGSGSGTDFTLRISRVEANDTGVYYCMQGLQSPLTFGQGTKLEIKR
8.10
TB640_005 Fab-SASA VL-L101N (Fab, V domains shown, not shown: SASA tag then His-tag) VH: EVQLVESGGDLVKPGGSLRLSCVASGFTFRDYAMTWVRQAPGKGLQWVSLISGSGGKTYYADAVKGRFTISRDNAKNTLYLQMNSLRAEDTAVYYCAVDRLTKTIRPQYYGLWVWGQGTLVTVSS VL: DIVMTQTPLSLSVSPGETASISCRSSQSLLYSIGYNYLDWYLQKPGQSPQGLIYLGSKRASGVPDRFSGSGSGTDFTLRISRVEANDTGVYYCMQGLQSPNTFGQGTKLEIKR
8.01

Exercise: Recorded pKd of TB640_005 Fab-SASA VL-A60L (Fab, V domains shown, not shown: SASA tag then His-tag) VH: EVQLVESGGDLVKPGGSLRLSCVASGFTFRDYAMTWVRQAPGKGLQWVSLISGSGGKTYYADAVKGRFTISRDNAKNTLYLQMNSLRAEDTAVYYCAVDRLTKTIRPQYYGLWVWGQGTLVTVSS VL: DIVMTQTPLSLSVSPGETASISCRSSQSLLYSIGYNYLDWYLQKPGQSPQGLIYLGSKRLSGVPDRFSGSGSGTDFTLRISRVEANDTGVYYCMQGLQSPLTFGQGTKLEIKR , please.
Solution: 8.27

Exercise: What pKd value was documented for this binder, TB640_005 Fab-SASA VH-V114H (Fab, V domains shown, not shown: SASA tag then His-tag) VH: EVQLVESGGDLVKPGGSLRLSCVASGFTFRDYAMTWVRQAPGKGLQWVSLISGSGGKTYYADAVKGRFTISRDNAKNTLYLQMNSLRAEDTAVYYCAVDRLTKTIRPQYYGLWHWGQGTLVTVSS VL: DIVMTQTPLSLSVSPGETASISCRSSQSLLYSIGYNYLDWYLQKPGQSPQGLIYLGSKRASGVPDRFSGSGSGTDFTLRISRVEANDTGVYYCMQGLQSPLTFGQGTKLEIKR ?
Solution: 8.26

Exercise: Please report the recorded pKd for TB640_005 Fab-SASA VH-L112M (Fab, V domains shown, not shown: SASA tag then His-tag) VH: EVQLVESGGDLVKPGGSLRLSCVASGFTFRDYAMTWVRQAPGKGLQWVSLISGSGGKTYYADAVKGRFTISRDNAKNTLYLQMNSLRAEDTAVYYCAVDRLTKTIRPQYYGMWVWGQGTLVTVSS VL: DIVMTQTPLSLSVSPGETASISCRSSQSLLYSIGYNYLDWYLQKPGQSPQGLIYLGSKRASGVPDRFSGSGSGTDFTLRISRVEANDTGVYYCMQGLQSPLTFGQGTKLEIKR .
Solution: 7.86
